Test system: myeloid leukemia patient primary cells Pat.2
RUN_DESCRIPTION: cell viability (% survival relative to DMSO control); higher = less cytotoxic
MEASUREMENT_CONDITIONS: 10 nM; 72 h
Lab note: cut-off is 90%. Strictly less in cell viability is 1.0. Exactly 90% or more is 0.0.

>  <STRUCTURE_STRING>
Cc1[nH]nc(C(F)(F)F)c1Cc1sc2c(c1C(=O)N1C[C@](C)(O)CO1)c(=O)n(C)c(=O)n2C(C)C

>  <QUALITATIVE_LABEL>
1.0

$$$$
>  <STRUCTURE_STRING>
CCN(CC)C(=S)SSC(=S)N(CC)CC

>  <QUALITATIVE_LABEL>
0.0

$$$$
>  <STRUCTURE_STRING>
CO[C@H]1C[C@@H]2CC[C@@H](C)[C@@](O)(O2)C(=O)C(=O)N2CCCC[C@H]2C(=O)O[C@H]([C@H](C)C[C@@H]2CC[C@@H](OC(=O)C(C)(CO)CO)[C@H](OC)C2)CC(=O)[C@H](C)/C=C(\C)[C@@H](O)[C@@H](OC)C(=O)[C@H](C)C[C@H](C)/C=C/C=C/C=C/1C

>  <QUALITATIVE_LABEL>
1.0

$$$$
>  <STRUCTURE_STRING>
Cn1cc(-c2ccncc2)c(-c2ccc(OCc3ccc4ccccc4n3)cc2)n1

>  <QUALITATIVE_LABEL>
0.0

$$$$
>  <STRUCTURE_STRING>
O=C(/C=C/c1ccc(O)c(O)c1)OCCc1ccccc1

>  <QUALITATIVE_LABEL>
0.0

$$$$
